- Test system: KM12 colon
- PROTOCOL_DESCRIPTION: NCI tumour cell line growth inhibition, 48 h; in the data active = GI50 below about 0.43 µM; inactive = the rest
Answer with one of the outcomes active, inactive

Which outcome did this test record for the compound "CCN1CCN(CC(=O)Nc2nc3ccc(NCc4ccc(Br)cc4)cc3s2)CC1" ?
inactive

Which outcome did this test record for the compound "CNCc1cccc2c1OCCOCCOCCNS(=O)(=O)c1ccc(cc1)-c1cnc(N)c(n1)C(=O)N2" ?
inactive

Which outcome did this test record for the compound "O=c1c(Oc2ccc(F)cc2F)cc2cnc(NC3CCOCC3)nc2n1C1CC1" ?
inactive

Which outcome did this test record for the compound "O=C1c2ccccc2-c2c1c1c(O)cccc1n2Cc1ccccc1" ?
inactive

Which outcome did this test record for the compound "COc1ccc(Cn2c(Br)c3c(c2-c2cc(OC)c(OC)c(OC)c2)CCc2sc(N)nc2-3)cc1" ?
inactive

Which outcome did this test record for the compound "OC[C@H]1C[C@](O)(c2ccc(F)cc2)[C@@H](c2ccc(F)cc2)O1" ?
inactive

Which outcome did this test record for the compound "COc1ccc([C@@H]2[C@@H](Oc3ccccc3)C(=O)N2c2cc(OC)c(OC)c(OC)c2)cc1F" ?
active

Which outcome did this test record for the compound "C/C(=C\c1csc(C)n1)[C@@H]1C[C@@H]2O[C@]2(C)CCC[C@H](C)[C@H](O)[C@@H](C)C(=O)C(C)(C)[C@@H](O)CC(=O)N1" ?
active
